System: Pythium ultimum
assay-procedure: Amended agar assay
Type: cell-based
details: Globisporangium ultimum; amended PDA agar, 2 ppm, % reduction in colony growth vs control plate, 18° C.
reported-property: inhibition of growth at 2 ppm

1) Cn1nnnc1-n1c(OCc2nc3ccccc3s2)nc2c(Cl)cccc21	> 99%
2) COc1cccc(CNc2cccc(COc3nc4ccccc4n3-c3nnnn3C)n2)c1	> 99%
3) CC(C)CCNc1cccc(COc2nc3ccccc3n2-c2nnnn2C)n1	> 99%

From: patent US11241013B2
